- system.under.test: T1, truncated hTfR1 of SEQ ID NO:122 (human, UniProt P02786 122-760)
- T1 construct: also called human TfR1; Human TfR1
- test: SPR, FLAG-captured TfR1, scFv injected, 1:1 fit
endpoint: kon
Write your answer as a measured quantity: the number, then the unit.

Could you share which kon value was measured for h26D3 HC6 DS S122K (scFv, also called h26D3 DS S122K) scFv: HHHHHHGGGGSGGGGSGGGGSGGGGSDIQMTQSPSSVSASVGDRVTITCKSSQSLLYSTNQKNYLAWYQQKPGKAPKLLIYWASTRESGVPSRFSGSGSGTDFTLTISSLQPEDFATYYCQQYFIYPRTFGCGTKVEIKGGGGSGGGGSGGGGSGGGGSEVQLVQSGAEVKKPGSSVKVSCKASGYIFTDYNMDWVRQAPGQCLEWIGDINPDADTTSYNEKFKGRATLTVDKSTSTAYMELSSLRSEDTAVYYCARGGYSGSSYYHPMDYWGQGTLVTVKS ?
76400 M⁻¹ s⁻¹

Could you share which kon value was measured for h26D3 HC6 DS S16E L118S (scFv, also called h26D3 DS S16E L118S) scFv: HHHHHHGGGGSGGGGSGGGGSGGGGSDIQMTQSPSSVSASVGDRVTITCKSSQSLLYSTNQKNYLAWYQQKPGKAPKLLIYWASTRESGVPSRFSGSGSGTDFTLTISSLQPEDFATYYCQQYFIYPRTFGCGTKVEIKGGGGSGGGGSGGGGSGGGGSEVQLVQSGAEVKKPGESVKVSCKASGYIFTDYNMDWVRQAPGQCLEWIGDINPDADTTSYNEKFKGRATLTVDKSTSTAYMELSSLRSEDTAVYYCARGGYSGSSYYHPMDYWGQGTSVTVSS ?
57800 M⁻¹ s⁻¹

Could you share which kon value was measured for h26D3-HC6_DS, VL-first (scFv) scFv: DIQMTQSPSSVSASVGDRVTITCKSSQSLLYSTNQKNYLAWYQQKPGKAPKLLIYWASTRESGVPSRFSGSGSGTDFTLTISSLQPEDFATYYCQQYFIYPRTFGCGTKVEIKGGGGSGGGGSGGGGSGGGGSEVQLVQSGAEVKKPGSSVKVSCKASGYIFTDYNMDWVRQAPGQCLEWIGDINPDADTTSYNEKFKGRATLTVDKSTSTAYMELSSLRSEDTAVYYCARGGYSGSSYYHPMDYWGQGTLVTVSS ?
63500 M⁻¹ s⁻¹

Could you share which kon value was measured for h26D3 HC6 DS T91S T120K (scFv, also called h26D3 DS T91S T120K) scFv: HHHHHHGGGGSGGGGSGGGGSGGGGSDIQMTQSPSSVSASVGDRVTITCKSSQSLLYSTNQKNYLAWYQQKPGKAPKLLIYWASTRESGVPSRFSGSGSGTDFTLTISSLQPEDFATYYCQQYFIYPRTFGCGTKVEIKGGGGSGGGGSGGGGSGGGGSEVQLVQSGAEVKKPGSSVKVSCKASGYIFTDYNMDWVRQAPGQCLEWIGDINPDADTTSYNEKFKGRATLTVDKSTSTAYMELSSLRSEDSAVYYCARGGYSGSSYYHPMDYWGQGTLVKVSS ?
61900 M⁻¹ s⁻¹

Could you share which kon value was measured for h26D3 HC6 DS V11R T120K (scFv, also called h26D3 DS V11R T120K) scFv: HHHHHHGGGGSGGGGSGGGGSGGGGSDIQMTQSPSSVSASVGDRVTITCKSSQSLLYSTNQKNYLAWYQQKPGKAPKLLIYWASTRESGVPSRFSGSGSGTDFTLTISSLQPEDFATYYCQQYFIYPRTFGCGTKVEIKGGGGSGGGGSGGGGSGGGGSEVQLVQSGAERKKPGSSVKVSCKASGYIFTDYNMDWVRQAPGQCLEWIGDINPDADTTSYNEKFKGRATLTVDKSTSTAYMELSSLRSEDTAVYYCARGGYSGSSYYHPMDYWGQGTLVKVSS ?
73300 M⁻¹ s⁻¹
